experimental.conditions: in methanol, 313.65 K
quantity.name: solubility (mole fraction)
Please reply with the number alone, leaving off any unit.

# solubility (mole fraction) lookup, item O=[N+]([O-])c1cc([N+](=O)[O-])c(O)c(Cl)c1O
0.00359

====

experimental.conditions: in methanol, 323.35 K
quantity.name: solubility (mole fraction)
Please give the numeric answer without any surrounding text.

// query solubility (mole fraction) value for entry O=[N+]([O-])c1cc([N+](=O)[O-])c(O)c(Cl)c1O
0.006

====

experimental.conditions: in ethyl acetate, 306.25 K
quantity.name: solubility (mole fraction)
Please reply with the value in numeric form only.

Reported solubility (mole fraction), compound O=[N+]([O-])c1cc([N+](=O)[O-])c(O)c(Cl)c1O : ____
0.0498

====

experimental.conditions: in water, 311.35 K
quantity.name: solubility (mole fraction)
Answer with a number only.

Entry under review: O=[N+]([O-])c1cc([N+](=O)[O-])c(O)c(Cl)c1O . Reported solubility (mole fraction)?
5.44e-05

====

experimental.conditions: in methanol, 315.95 K
quantity.name: solubility (mole fraction)
# respond with the number and nothing more

// solubility (mole fraction) lookup, key: O=[N+]([O-])c1cc([N+](=O)[O-])c(O)c(Cl)c1O
0.00406

====

experimental.conditions: in water, 327.45 K
quantity.name: solubility (mole fraction)
The answer should be a number; do not append a unit.

Using the record for O=[N+]([O-])c1cc([N+](=O)[O-])c(O)c(Cl)c1O , report its solubility (mole fraction).
9.79e-05

====

experimental.conditions: in ethyl acetate, 337.15 K
quantity.name: solubility (mole fraction)
Give the figure only, with no unit attached.

So what's the measured solubility (mole fraction) for this one? O=[N+]([O-])c1cc([N+](=O)[O-])c(O)c(Cl)c1O
0.0772

====

experimental.conditions: in methanol, 308.75 K
quantity.name: solubility (mole fraction)
Reply: number alone, nothing else.

Given O=[N+]([O-])c1cc([N+](=O)[O-])c(O)c(Cl)c1O , state its recorded solubility (mole fraction).
0.00277

====

experimental.conditions: in water, 301.15 K
quantity.name: solubility (mole fraction)

For the molecule O=[N+]([O-])c1cc([N+](=O)[O-])c(O)c(Cl)c1O , what solubility (mole fraction) is on record?
3.65e-05

====

experimental.conditions: in water, 325.85 K
quantity.name: solubility (mole fraction)
Answer with a bare number; do not write a unit.

Please look up its solubility (mole fraction): O=[N+]([O-])c1cc([N+](=O)[O-])c(O)c(Cl)c1O
9.12e-05

====

experimental.conditions: in acetic acid, 340.45 K
quantity.name: solubility (mole fraction)
Enter a number only.

Item under review: O=[N+]([O-])c1cc([N+](=O)[O-])c(O)c(Cl)c1O . Reported solubility (mole fraction)?
0.0289

====

experimental.conditions: in ethyl acetate, 344.95 K
quantity.name: solubility (mole fraction)
I'd appreciate a reply containing only the number, no unit.

Would you kindly share the measured solubility (mole fraction) for O=[N+]([O-])c1cc([N+](=O)[O-])c(O)c(Cl)c1O ?
0.0863

====

experimental.conditions: in ethanol, 320.15 K
quantity.name: solubility (mole fraction)
// response body must contain only the number

So what's the measured solubility (mole fraction) for this one? O=[N+]([O-])c1cc([N+](=O)[O-])c(O)c(Cl)c1O
0.00711

====

experimental.conditions: in methanol, 330.15 K
quantity.name: solubility (mole fraction)
Number only, please.

Consider the compound O=[N+]([O-])c1cc([N+](=O)[O-])c(O)c(Cl)c1O and give its measured solubility (mole fraction).
0.0086

====

experimental.conditions: in ethanol, 299.35 K
quantity.name: solubility (mole fraction)
Answer field: number only, no words.

Report solubility (mole fraction) for O=[N+]([O-])c1cc([N+](=O)[O-])c(O)c(Cl)c1O please.
0.00297

====

experimental.conditions: in methanol, 327.05 K
quantity.name: solubility (mole fraction)
Enter a number only.

Tell me the measured solubility (mole fraction) of O=[N+]([O-])c1cc([N+](=O)[O-])c(O)c(Cl)c1O , please.
0.00731

====

experimental.conditions: in ethyl acetate, 309.95 K
quantity.name: solubility (mole fraction)

solubility (mole fraction) for O=[N+]([O-])c1cc([N+](=O)[O-])c(O)c(Cl)c1O ?
0.0525

====

experimental.conditions: in ethyl acetate, 298.75 K
quantity.name: solubility (mole fraction)

Look up solubility (mole fraction) for this compound: O=[N+]([O-])c1cc([N+](=O)[O-])c(O)c(Cl)c1O
0.0449

====

experimental.conditions: in ethanol, 303.15 K
quantity.name: solubility (mole fraction)
Write the value as a bare number.

Param item = O=[N+]([O-])c1cc([N+](=O)[O-])c(O)c(Cl)c1O ; retrieve measured solubility (mole fraction).
0.00355

====

experimental.conditions: in methanol, 320.75 K
quantity.name: solubility (mole fraction)
Give the value as a plain number.

Value lookup for solubility (mole fraction); key = O=[N+]([O-])c1cc([N+](=O)[O-])c(O)c(Cl)c1O
0.00524

====

experimental.conditions: in ethyl acetate, 333.35 K
quantity.name: solubility (mole fraction)

What value of solubility (mole fraction) has been recorded for this entry: O=[N+]([O-])c1cc([N+](=O)[O-])c(O)c(Cl)c1O
0.0731

====

experimental.conditions: in ethyl acetate, 313.85 K
quantity.name: solubility (mole fraction)
// print number alone

Suppose we examine the compound O=[N+]([O-])c1cc([N+](=O)[O-])c(O)c(Cl)c1O ; what solubility (mole fraction) value has been reported?
0.0555

====

experimental.conditions: in water, 298.85 K
quantity.name: solubility (mole fraction)

Can you share its solubility (mole fraction)? I mean this compound: O=[N+]([O-])c1cc([N+](=O)[O-])c(O)c(Cl)c1O
3.49e-05

====

experimental.conditions: in ethanol, 329.85 K
quantity.name: solubility (mole fraction)
Please respond with just the number, no unit label.

Fill blank: measured solubility (mole fraction) of the molecule O=[N+]([O-])c1cc([N+](=O)[O-])c(O)c(Cl)c1O is ____.
0.00989

====

experimental.conditions: in acetic acid, 334.65 K
quantity.name: solubility (mole fraction)
Response field accepts a number only; no unit should be typed.

Which solubility (mole fraction) is reported for this compound? O=[N+]([O-])c1cc([N+](=O)[O-])c(O)c(Cl)c1O
0.0248

====

experimental.conditions: in acetic acid, 318.75 K
quantity.name: solubility (mole fraction)

Which solubility (mole fraction) is listed for O=[N+]([O-])c1cc([N+](=O)[O-])c(O)c(Cl)c1O ?
0.0149

====

experimental.conditions: in methanol, 299.75 K
quantity.name: solubility (mole fraction)
Just the number, please, no unit after it.

So what does the record say about solubility (mole fraction) for O=[N+]([O-])c1cc([N+](=O)[O-])c(O)c(Cl)c1O ?
0.00172

====

experimental.conditions: in ethyl acetate, 342.55 K
quantity.name: solubility (mole fraction)

Item O=[N+]([O-])c1cc([N+](=O)[O-])c(O)c(Cl)c1O has what recorded solubility (mole fraction)?
0.0834

====

experimental.conditions: in water, 315.75 K
quantity.name: solubility (mole fraction)
Please give only the number in your answer, with no unit.

What solubility (mole fraction) value was documented for this compound, O=[N+]([O-])c1cc([N+](=O)[O-])c(O)c(Cl)c1O ?
6.29e-05

====

experimental.conditions: in water, 332.25 K
quantity.name: solubility (mole fraction)
In your answer, state the number alone without any accompanying words.

Form field: reported solubility (mole fraction) of O=[N+]([O-])c1cc([N+](=O)[O-])c(O)c(Cl)c1O
0.000113

====

experimental.conditions: in ethanol, 335.45 K
quantity.name: solubility (mole fraction)
Answer with the value's number alone.

Find the recorded solubility (mole fraction) belonging to O=[N+]([O-])c1cc([N+](=O)[O-])c(O)c(Cl)c1O and report it.
0.0118

====

experimental.conditions: in water, 336.35 K
quantity.name: solubility (mole fraction)
The answer should be written as a number, with no unit following it.

Given the entry O=[N+]([O-])c1cc([N+](=O)[O-])c(O)c(Cl)c1O , report its measured solubility (mole fraction).
0.00013

====

experimental.conditions: in water, 320.65 K
quantity.name: solubility (mole fraction)
Write the value as a bare number.

Quick check: solubility (mole fraction) of O=[N+]([O-])c1cc([N+](=O)[O-])c(O)c(Cl)c1O ?
7.62e-05

====

experimental.conditions: in water, 313.35 K
quantity.name: solubility (mole fraction)
Output spec: single numeric token, no unit.

# solubility (mole fraction) lookup, item O=[N+]([O-])c1cc([N+](=O)[O-])c(O)c(Cl)c1O
5.67e-05

====

experimental.conditions: in methanol, 318.15 K
quantity.name: solubility (mole fraction)
The answer should be a number; do not append a unit.

Consider the compound O=[N+]([O-])c1cc([N+](=O)[O-])c(O)c(Cl)c1O and give its measured solubility (mole fraction).
0.00456
